# maps each entry to its IC50
Tested on: U937 cells (monocytic cell line)
Experiment: Cell proliferation inhibition assay (WST-1), U937
Format: cell-based
Conditions: Homo sapiens, U-937; U937 monocytic cell line; read-out: Cell proliferation IC50 nM (U937 cells)
Value Type: IC50

Smiles	Target Or System	Value Type	Reported Value
Cc1c(CNc2ccc(OCC[C@H](NC3CCCCC3)C(=O)OC3CCCC3)cc2)cnc2nc(N)nc(N)c12	U937 cells (monocytic cell line)	IC50	310 nM
O=C(CCCCCCC(=O)Nc1cccc(CN[C@H](C(=O)OC2CCCC2)c2ccccc2)c1)NO	U937 cells (monocytic cell line)	IC50	50 nM
COc1cc2c(Oc3ccc(NC(=O)c4ccccc4)cc3)ccnc2cc1OCC[C@H](NC1CCCCC1)C(=O)OC1CCCC1	U937 cells (monocytic cell line)	IC50	1900 nM
Cc1c(CNc2ccc(OCC[C@H](N)C(=O)OC3CCCC3)cc2)cnc2nc(N)nc(N)c12	U937 cells (monocytic cell line)	IC50	5100 nM
